- experimental_target: T1, recombinant human cardiac troponin T (human, UniProt P45379 2-298)
- T1 construct: In the ECL assay the cTnT came from the Troponin T hs CalSet calibrator; also called cTnT; TnT
- assay_overview: SPR (Biacore T200, 37 C), Fab captured, cTnT analyte
property_label: koff (s⁻¹)
Response body: numeric value in s⁻¹, unit text excluded.

Example cases with answers are listed next.
Per the record, anti-cTnT Fab mutant 15 (Y34I, Y104F) (Fab, V domains shown, also called combination 15) VH: EVQLQQSGPELVKPGASVKMSCKASGYTFTDYIMKWVKQSHGKSLEWIGDINPNNGETFYNQKFKDKATLTVDKSSSTAYMQLNSLTSEDSAVYYCATRVFDFWGQGTTLTVSS VL: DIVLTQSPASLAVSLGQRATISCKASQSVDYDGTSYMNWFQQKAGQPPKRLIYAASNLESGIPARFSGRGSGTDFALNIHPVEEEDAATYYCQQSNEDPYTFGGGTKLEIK has koff of 0.0023

GET /value?item= anti-cTnT Fab mutant 1 (Y34F) (Fab, V domains shown, also called combination 1) VH: EVQLQQSGPELVKPGASVKMSCKASGYTFTDYFMKWVKQSHGKSLEWIGDINPNNGETFYNQKFKDKATLTVDKSSSTAYMQLNSLTSEDSAVYYCATRVFDYWGQGTTLTVSS VL: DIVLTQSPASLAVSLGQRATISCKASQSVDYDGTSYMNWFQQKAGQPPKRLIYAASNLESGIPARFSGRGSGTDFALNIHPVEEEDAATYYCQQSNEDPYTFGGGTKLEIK &field=koff returns 0.0014

***
Lab book: koff of anti-cTnT Fab mutant 9 (Y34I) (Fab, V domains shown, also called combination 9) VH: EVQLQQSGPELVKPGASVKMSCKASGYTFTDYIMKWVKQSHGKSLEWIGDINPNNGETFYNQKFKDKATLTVDKSSSTAYMQLNSLTSEDSAVYYCATRVFDYWGQGTTLTVSS VL: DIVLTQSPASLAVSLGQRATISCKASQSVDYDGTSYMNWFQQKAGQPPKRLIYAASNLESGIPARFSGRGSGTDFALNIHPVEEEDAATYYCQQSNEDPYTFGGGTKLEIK noted as 0.0023

Value of measured koff for the entry anti-cTnT Fab mutant 4 (Y34F, F60W, Y104F) (Fab, V domains shown, also called combination 4) VH: EVQLQQSGPELVKPGASVKMSCKASGYTFTDYFMKWVKQSHGKSLEWIGDINPNNGETWYNQKFKDKATLTVDKSSSTAYMQLNSLTSEDSAVYYCATRVFDFWGQGTTLTVSS VL: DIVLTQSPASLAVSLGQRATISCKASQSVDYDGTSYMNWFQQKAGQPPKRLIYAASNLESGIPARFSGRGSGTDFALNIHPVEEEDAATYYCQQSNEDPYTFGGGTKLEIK : 0.00072

# binder anti-cTnT Fab mutant 22 (F60W, Y104F) (Fab, V domains shown, also called combination 22) VH: EVQLQQSGPELVKPGASVKMSCKASGYTFTDYYMKWVKQSHGKSLEWIGDINPNNGETWYNQKFKDKATLTVDKSSSTAYMQLNSLTSEDSAVYYCATRVFDFWGQGTTLTVSS VL: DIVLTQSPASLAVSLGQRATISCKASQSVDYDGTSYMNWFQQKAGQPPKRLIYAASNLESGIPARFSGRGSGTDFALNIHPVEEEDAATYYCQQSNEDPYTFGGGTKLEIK ; its koff = 0.0011

Just for reference, patent US20210009668A1 is where these values come from.
